# Test system: MDA-MB-435

{"compound": "CC1=C(C(=O)Nc2ccc(F)c(Cl)c2)C(c2ccccc2Cl)NC(=S)N1 (centres undefined)", "system name": "MDA-MB-435", "GI50": "30.1 µM"}
{"compound": "CCOc1cccc(/C=N/NC(=O)c2ccc(Nc3ccnc(C(F)(F)F)c3)cc2)c1O", "system name": "MDA-MB-435", "GI50": "6.19 µM"}
{"compound": "C=C1C(=O)O[C@H]2[C@H]1CC/C(COC(=O)CCCCC(=O)OC/C1=C/CC[C@@]3(C)O[C@H]3[C@H]3OC(=O)C(=C)[C@@H]3CC1)=C\\CC[C@@]1(C)O[C@@H]21", "system name": "MDA-MB-435", "GI50": "2.39 µM"}
{"compound": "O=c1cc(-c2cccc(C(F)(F)F)c2)[nH]c2cc3c(cc12)OCO3", "system name": "MDA-MB-435", "GI50": "0.175 µM"}

----------
# System: SK-MEL-28 melanoma
# protocol description: NCI tumour cell line growth inhibition, 48 h
Where a SMILES comes first, the peptide text is derived from it. The star is where a group is joined. Boc = CC(C)(C)OC(=O)*
assay endpoint: TGI

{"compound": "COc1cccc(-c2cc(=O)c3cc(OC)c(OC)cc3[nH]2)c1", "assay endpoint": "TGI", "experimental result": "> 100 µM"}
{"compound": "CN(NC(=O)c1ccco1)C1=NCCN1", "assay endpoint": "TGI", "experimental result": "> 100 µM"}
{"compound": "CC1Cc2c(Br)nc(N)nc2NC1=O (stereo not given)", "assay endpoint": "TGI", "experimental result": "> 100 µM"}
{"compound": "CC(C)(C)NC(C1=CC(C)(C)c2ccccc2C1=O)c1ccccc1 (stereo not given)", "assay endpoint": "TGI", "experimental result": "2.95 µM"}
{"compound": "CN1C(=O)c2ccccc2NC(=O)c2cnn(C)c21", "assay endpoint": "TGI", "experimental result": "> 100 µM"}
{"compound": "COc1cc(C2c3cc4c(cc3OC(NC3CCCCC3)C2C)OCO4)cc(OC)c1OC (stereo not given)", "assay endpoint": "TGI", "experimental result": "> 100 µM"}
{"compound": "CCOP(C)(=O)C(Cc1c[nH]c2ccccc12)C(=O)O (stereo not given)", "assay endpoint": "TGI", "experimental result": "> 100 µM"}
{"compound": "COC(=O)CCC(=O)CC(=O)C1=NS(=O)(=O)c2nc(S(N)(=O)=O)c(Cl)cc2N1", "assay endpoint": "TGI", "experimental result": "> 100 µM"}
{"compound": "O=S(=O)(/C=C/c1ccc(Cl)cc1Cl)Cc1ccccc1CS(=O)(=O)/C=C/c1ccc(Cl)cc1Cl", "assay endpoint": "TGI", "experimental result": "> 100 µM"}
{"compound": "CCCCCCCC1(N=[N+]=[N-])C(=O)c2ccccc2N(C)C1=O (stereo not given)", "assay endpoint": "TGI", "experimental result": "> 100 µM"}
{"compound": "O=C(CN1CCN(c2ncnc3ccccc23)CC1)Nc1ccc(Cl)cc1C(=O)c1ccccc1Cl", "assay endpoint": "TGI", "experimental result": "3.36 µM"}
{"compound": "CC(=O)c1cccc(NC(=O)/C(=N\\NC(C)(C)C)c2c(O)c3ccccc3oc2=O)c1", "assay endpoint": "TGI", "experimental result": "> 100 µM"}
{"compound": "COc1cc(OC)cc(Oc2nc3ccccc3nc2C(=O)O)c1", "assay endpoint": "TGI", "experimental result": "> 100 µM"}
{"compound": "CCOc1ccc(N=NC2C(=O)N(C(=O)CC(=O)Nc3ccccc3OC)N=C2C)cc1 (stereo not given)", "assay endpoint": "TGI", "experimental result": "> 100 µM"}
{"compound": "CC(C)/C(Cl)=N\\OC(=O)Nc1cccc(F)c1", "assay endpoint": "TGI", "experimental result": "31.9 µM"}
{"compound": "CC(C)=CCC[C@@H](C)C1=C(O)C(Nc2ccccc2Br)=C(C)C(=O)C1=O", "assay endpoint": "TGI", "experimental result": "> 80.6 µM"}
{"compound": "COc1ccc(N2C(=O)C3c4[nH]c5ccccc5c4C4CCCCCCCCCCC4C3C2=O)cc1 (stereo not given)", "assay endpoint": "TGI", "experimental result": "29.7 µM"}
{"compound": "C1=Cc2ccccc2Nc2ccccc21", "assay endpoint": "TGI", "experimental result": "> 100 µM"}
{"compound": "COc1cc(NS(C)(=O)=O)ccc1Nc1c2ccc(Cl)cc2nc2c(OC)cccc12", "assay endpoint": "TGI", "experimental result": "18 µM"}
{"compound": "COc1ccc(-c2[nH]c3ccccc3c2C=C(C#N)C#N)cc1", "assay endpoint": "TGI", "experimental result": "> 39.3 µM"}
{"compound": "Cc1c(Cl)ccc2c1NC(=O)C2(O)C(C(=O)c1ccccc1)c1ccccc1 (stereo not given)", "assay endpoint": "TGI", "experimental result": "> 100 µM"}
{"compound": "CC[C@@H](C(=O)[C@@H](C)[C@@H](O)[C@H](C)[C@@H]1O[C@@H]([C@@H](CC)C(=O)O)CC[C@@H]1C)C1O[C@]2(C=CC(=O)[C@]3(CC[C@@](C)([C@H]4CC[C@](O)(CC)[C@H](C)O4)O3)O2)[C@H](C)C[C@@H]1C (stereo not given in full)", "assay endpoint": "TGI", "experimental result": "2.53 µM"}
{"compound": "O=C1C=CC2(O[C@H](c3ccccc3)[C@@H](c3ccccc3)O2)C(SC(=O)c2ccccc2)C1 (stereo not given in full)", "assay endpoint": "TGI", "experimental result": "3.55 µM"}
{"compound": "COC(=O)CCCN(C)c1n[nH]c(N)n1", "assay endpoint": "TGI", "experimental result": "> 100 µM"}
{"compound": "C=CCCCC1CCCNC1=O (stereo not given)", "assay endpoint": "TGI", "experimental result": "> 100 µM"}
{"compound": "CC1=NN(C(=O)CC(=O)Nc2ccccc2C)C(=O)C1N=Nc1ccc(C(=O)O)cc1 (stereo not given)", "assay endpoint": "TGI", "experimental result": "> 100 µM"}
{"compound": "CC(NC(=O)C(NC(=O)OC(C)(C)C)C(C)C)C(=O)N1CCCC1C(=O)NCC(=O)NC(C(=O)NCC(=O)O)C(C)C (stereo not given) (Boc-VAPGVG-OH; configuration not given here)", "assay endpoint": "TGI", "experimental result": "> 100 µM"}
{"compound": "CCOc1c(Br)cc(C2C(C(=O)OC)=CN(C)C=C2C(=O)OC)cc1OC", "assay endpoint": "TGI", "experimental result": "> 100 µM"}
{"compound": "COc1cc2cc(C(=O)N3CC(CCl)c4c3cc([N+](=O)[O-])c3ccccc43)[nH]c2c(OC)c1OC (stereo not given)", "assay endpoint": "TGI", "experimental result": "> 100 µM"}
{"compound": "C=CCCC(OCOCCOC)c1cc(C)c(O[Si](C)(C)C(C)(C)C)c(C)c1 (stereo not given)", "assay endpoint": "TGI", "experimental result": "64.7 µM"}
